// provenance: paper PMC4774911

# Target System: UniProt:Q13043
# Sequence (Q13043 1-487): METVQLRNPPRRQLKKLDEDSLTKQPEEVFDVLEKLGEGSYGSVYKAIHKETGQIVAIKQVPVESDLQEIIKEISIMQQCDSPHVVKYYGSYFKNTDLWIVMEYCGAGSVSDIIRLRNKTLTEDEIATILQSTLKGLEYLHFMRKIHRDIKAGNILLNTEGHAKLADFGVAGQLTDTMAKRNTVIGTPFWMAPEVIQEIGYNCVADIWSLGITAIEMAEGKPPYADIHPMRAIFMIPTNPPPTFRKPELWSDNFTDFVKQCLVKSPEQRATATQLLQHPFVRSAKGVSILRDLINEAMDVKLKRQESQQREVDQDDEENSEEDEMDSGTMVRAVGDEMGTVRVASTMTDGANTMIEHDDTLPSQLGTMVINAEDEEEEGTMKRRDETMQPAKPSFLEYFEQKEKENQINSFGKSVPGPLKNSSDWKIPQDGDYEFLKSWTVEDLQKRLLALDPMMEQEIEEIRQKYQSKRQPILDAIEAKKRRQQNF
pIC50: −log10 of the molar value.
Quantity Name: pIC50

Task: Give pIC50 for this entry on UniProt:Q13043: Cl.NCC1(c2nc(-c3ccc(Cl)c(O)c3)c(-c3ccncc3)[nH]2)CCCCC1
Result: < 4.70
